Experiment: PAX8 transcriptional activity inhibition in RMG-I – RMG-I cells, luciferase, single concentration, primary screen (AID 652154);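 further: luciferase light reporting Pax8 driven TPO promoter activity; plate controls were median of neutral control wells for no effect and mitoxantrone controls for full effect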
Details: RMG-I TPO-luciferase reporter, SteadyGlo, 24 h; at 12.6 µM; stronger effect = higher value
About 4,200 (1.2%) of roughly 360,000 compounds were called active. Many of the other results were omitted from the sample, so actives are more common in it than they were.
Below, each entry is listed with its recorded inhibition.
Lab book: enter the figure in %, no units written.

C[C@H](CO)N1C[C@H](C)[C@@H](CN(C)S(=O)(=O)c2ccc([N+](=O)[O-])cc2)OCc2ccccc2-c2c(n(C)c3ccccc23)C1=O ... 16.1
Cc1ccc(C)c(S(=O)(=O)N2CCN(c3ncnc4sccc34)CC2)c1 ... 73.6

Query: inhibition; subject: `CO[C@H]1CN(C)C(=O)c2ccc(NC(=O)CC(F)(F)F)cc2OC[C@@H](C)N(C(=O)c2ccccc2F)C[C@@H]1C`
-20.3

Tell me the measured inhibition of `CCN1/C(=C\c2ccc3ccccc3[n+]2CC)Sc2cc(C)ccc21` , please.
93.7

What does the record list as inhibition for `C[C@@H]1CN([C@H](C)CO)C(=O)c2c(c3ccccc3n2C)-c2ccccc2CO[C@H]1CN(C)S(=O)(=O)c1ccccc1F` ?
40.5

Can you share its inhibition? I mean this molecule: `C[C@H](CO)N1C[C@H](C)[C@H](CN(C)C(=O)Nc2ccc(F)cc2)Oc2ncc(-c3cc4ccccc4o3)cc2C1=O`
23.1

What does the record list as inhibition for `Cc1ccc(C)c(S(=O)(=O)N2CCN(CC(=O)Nc3ccc([N+](=O)[O-])cc3)CC2)c1` ?
6.46

Entry under review: `C[C@@H]1CCCCO[C@@H](CN(C)Cc2ccccc2)[C@H](C)CN([C@H](C)CO)C(=O)c2cc(NS(=O)(=O)c3cccs3)ccc2O1` . Reported inhibition?
6.46

Would you mind telling me what inhibition value was observed for `CC(C)NC(=O)Nc1ccc2c(c1)C(=O)N([C@H](C)CO)C[C@@H](C)[C@@H](CN(C)C(=O)c1ccncc1)OCCCC[C@H](C)O2` ?
1.42

Return reported inhibition; argument: `C[C@@H]1CCCCO[C@@H](CN(C)Cc2ccc(C(=O)O)cc2)[C@H](C)CN([C@H](C)CO)C(=O)c2cc(NS(=O)(=O)c3cccs3)ccc2O1`
0.438

Would you mind telling me what inhibition value was observed for `Cn1c(CCN2CCN(c3ccccn3)CC2)nc2cc(NS(=O)(=O)c3ccc(F)cc3)ccc21` ?
50.3

Entry under review: `CCOC(=O)c1ccc(NC(=O)c2nc[nH]c2C(=O)N[C@@H](CCCCNC(=O)OC(C)(C)C)C(=O)OC(C)(C)C)cc1` . Reported inhibition?
11.1

Please report the recorded inhibition for `COc1ccccc1NC(=O)N1C[C@H]2[C@@H](c3ccccc31)[C@@H](CO)N2C(=O)C1CCCC1` .
14.9

Would you kindly share the measured inhibition for `CCCNC(=O)C[C@H]1CC[C@H]2[C@@H](COc3ccc(NC(=O)Nc4c(C)noc4C)cc3C(=O)N2C)O1` ?
-6.6

Consider the molecule `O=C(C[C@@H]1CC[C@@H]2[C@H](COC[C@H](O)CN2C(=O)c2ccncc2)O1)NCc1cc(F)cc(F)c1` and give its measured inhibition.
-12.3
